System: human pancreatic carcinoma (PANC-1)
assay protocol: MTS metabolic activity assay, PANC-1 cells
Type: cell-based
condition summary: Homo sapiens; PANC-1, 300 µM, 72 h; read-out: Cell metabolic activity (MTS), % of untreated control
readout type: viability at 300 µM (%)
Report the value in % with no unit label.

Would you please look over these solved cases?
- molecule: "CCCC1SC(NC2CCCC2)=NC1=O (stereo not drawn) [Compound 3c]"
  observed result: 115
- molecule: "CCC1SC(NC2CCCC2)=NC1=O (stereo not drawn) [Compound 3b]"
  observed result: 110

Then this molecule:
Return reported viability at 300 µM; argument: O=C1N=C(NC2CCCC2)SC12CCC2 [Compound 3i] 79.7
